These measurements were taken from patent US20230406942A1.

- target_desc: T1, Human IGF-I R (Glu 31-Asn 932 with a polyhistidine tag at the C-terminus) (human, UniProt P08069 31-932)
- T1 construct: range 31-932; Bought protein; captured on Ni-NTA biosensors for BLI; also called IGF1R; IGF-1R; not shown: C-terminal polyhistidine tag
- test: BLI (Octet RED96e), His-tagged IGF-1R on Ni-NTA sensors, Fab 0-100 nM, 1:1 global fit
assay_metric: kon (M⁻¹ s⁻¹)
Report as a plain number; the unit M⁻¹ s⁻¹ is understood.

Need kon, item C10 Fab (Fab, V domains shown) VH: QVELVESGGGVVQPGRSQRLSCAASGFTFSSAGMHWVRQAPGKGLEWVAIIWADGSSTYYADSVRGRFTISRDNSKNTLYLQMNSLRAEDTAVYFCARELGRRYFDLWGRGTLVSVSS VL: EIVLTQSPATLSLSPGERATLSCRASQSVSSYLAWYQQKPGQAPRLLIYDASKRATGIPARFSGSGSGTDFTLTISSLEPEDFAVYYCQQRSKYPPWTFGQGTKVESK
1.08e+06

Record request: kon value, item B09 Fab (Fab, V domains shown) VH: QVELVESGGGVVQPGRSQRLSCAASGFTFSSHGMHWVRQAPGKGLEWVAIIAGDASTTYYADSVRGRFTISRDNSKNTLYLQMNSLRAEDTAVYFCARELGRRYFDLWGRGTLVSVSS VL: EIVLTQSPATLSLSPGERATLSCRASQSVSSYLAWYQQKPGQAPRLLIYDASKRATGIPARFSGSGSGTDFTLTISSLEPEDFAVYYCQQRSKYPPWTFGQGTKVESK
705000

Quick check: kon of B10 Fab (Fab, V domains shown) VH: QVELVESGGGVVQPGRSQRLSCAASGFTFSSYGMHWVRQAPGKGLEWVATIWFDGSSTYYADSVRGRFTISRDNSKNTLYLQMNSLRAEDTAVYFCARELGRRYFDLWGRGTLVSVSS VL: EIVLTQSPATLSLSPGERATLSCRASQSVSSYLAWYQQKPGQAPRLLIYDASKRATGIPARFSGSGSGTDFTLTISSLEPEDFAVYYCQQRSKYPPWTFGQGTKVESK ?
921000

Reported kon, binder A11 Fab (Fab, V domains shown) VH: QVELVESGGGVVQPGRSQRLSCAASGFTFSSYGMHWVRQAPGKGLEWVAYIWFDGSSTYYADSVRGRFTISRDNSKNTLYLQMNSLRAEDTAVYFCARELGRRYFDLWGRGTLVSVSS VL: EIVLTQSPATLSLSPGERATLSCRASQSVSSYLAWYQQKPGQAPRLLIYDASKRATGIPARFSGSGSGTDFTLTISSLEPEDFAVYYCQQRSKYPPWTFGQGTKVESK : ____
895000
